# Target Entity: cathepsin S (Homo sapiens)
# Sequence (P25774 115-331, species assumed): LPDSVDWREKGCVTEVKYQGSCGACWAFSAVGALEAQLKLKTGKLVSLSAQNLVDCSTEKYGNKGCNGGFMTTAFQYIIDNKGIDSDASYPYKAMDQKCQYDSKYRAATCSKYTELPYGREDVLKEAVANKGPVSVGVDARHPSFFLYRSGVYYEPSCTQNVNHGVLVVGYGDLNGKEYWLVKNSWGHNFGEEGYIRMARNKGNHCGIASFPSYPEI
# Experiment: Inhibition of cathepsin S, fluorogenic substrate Z-Val-Val-Arg-AMC
# Format: biochemical
# Experimental Parameters: 50 mM phosphate, pH 6.5, 2.5 mM EDTA, 2.5 mM DTT; Dixon plot
# Method: The assay at 250 was started by the addition of cat S (final concentration approx […]) and the increase in fluorescence at 450 nm with excitation at 380 nm was followed over 2 min. The depression in the rate of substrate hydrolysis following addition of varying concentrations of inhibitors was noted. The assay was linear throughout the range observed. Duplicate runs were measured. […]
Reported Ki values follow for various compounds
Test Readout: Ki (µM)

>>> df
                                   compound  numeric_readout
0  O=C(NC(CCc1ccccc1)S(=O)(=O)CF)[C@H](Cc1ccccc1)NC(=O)N1CCOCC1 (stereo partly drawn)              2.8
1  O=C(N[C@@H](CCc1ccccc1)S(=O)(=O)c1ccccc1)[C@H](Cc1ccccc1)NC(=O)N1CCOCC1              2.6
2  CC(C)C[C@H](NC(=O)N1CCOCC1)C(=O)NC(CCc1ccccc1)S(=O)(=O)c1ccccc1 (stereo partly drawn)              1.6
3  CC(C)C[C@H](NC(=O)N1CCOCC1)C(=O)NC(CCc1ccccc1)S(=O)(=O)Cc1ccccc1 (stereo partly drawn)              4.2
4  O=C(NC(CCc1ccccc1)S(=O)(=O)c1ccccc1)[C@H](Cc1ccccc1)NC(=O)N1CCOCC1 (stereo partly drawn) [Mu--Phe--(DL)HphαSO2 Ph,]              3.7
5  O=C(NC(CCc1ccccc1)S(=O)(=O)c1ccccc1)[C@H](Cc1ccccc1)NC(=O)N1CCOCC1 (stereo partly drawn) [Mu--Phe--(DL)HphαSO2 Ph]                5

----------
# Target Entity: cruzain (Trypanosoma cruzi, UniProt P25779)
# Sequence (P25779 123-467): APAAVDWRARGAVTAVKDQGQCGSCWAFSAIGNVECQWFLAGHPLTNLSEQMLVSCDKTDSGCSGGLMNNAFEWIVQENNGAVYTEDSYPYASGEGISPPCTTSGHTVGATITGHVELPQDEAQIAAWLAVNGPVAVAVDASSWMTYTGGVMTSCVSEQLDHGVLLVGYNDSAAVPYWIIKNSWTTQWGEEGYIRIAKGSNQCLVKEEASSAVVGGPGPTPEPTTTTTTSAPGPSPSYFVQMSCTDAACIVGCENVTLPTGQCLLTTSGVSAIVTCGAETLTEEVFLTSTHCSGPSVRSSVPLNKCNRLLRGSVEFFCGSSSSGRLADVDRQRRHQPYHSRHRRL
# Experiment: Inhibition of cruzain (conditions as for cathepsin L)
# Type: biochemical, T. cruzi
# Experimental Parameters: 50 mM acetate, pH 5.5, 2.5 mM EDTA, 2.5 mM DTT; Km 1 mM; Dixon plot; read-out: cruzain (Ki μM)
# Satisfied = Ki below 0.9 µM (exclusive); Not satisfied = Ki at/above 0.9 µM

>>> print(df.to_string())
                                   molecule       category
0  O=C(CC[C@H](CCc1ccccc1)NC(=O)[C@H](Cc1ccccc1)NC(=O)N1CCOCC1)Nc1ccccc1      Satisfied
1  O=C(CC[C@H](CCc1ccccc1)NC(=O)[C@H](Cc1ccccc1)NC(=O)N1CCOCC1)NCc1ccccc1  Not satisfied
2  CC(C)C[C@H](NC(=O)N1CCOCC1)C(=O)NC(CCc1ccccc1)S(=O)(=O)c1ccccc1 (stereo partly shown)      Satisfied
3  O=C(O)CCC(=O)N[C@@H](Cc1ccc2ccccc2c1)C(=O)N[C@@H](CCc1ccccc1)CCS(=O)(=O)c1ccc2ccccc2c1      Satisfied
4  O=C(NC(CCc1ccccc1)S(=O)(=O)CF)[C@H](Cc1ccccc1)NC(=O)N1CCOCC1 (stereo partly shown)  Not satisfied

----------
# Target Entity: cruzain (Trypanosoma cruzi)
# Experiment: Inhibition of cruzain (conditions as for cathepsin L)
# Type: biochemical, T. cruzi
# Experimental Parameters: 50 mM acetate, pH 5.5, 2.5 mM EDTA, 2.5 mM DTT; Km 1 mM; Dixon plot; read-out: cruzain (Ki μM)
Test Readout: Ki (µM)

                                   compound  numeric_readout
0  O=C(Cc1ccccc1)N[C@@H](Cc1ccccc1)C(=O)N[C@@H](CCc1ccccc1)CCS(=O)(=O)c1ccccc1 [Phac--Phe--HphγSO2 Ph]              1.8
1  O=C(N[C@@H](CCc1ccccc1)CCS(=O)(=O)c1ccc2ccccc2c1)[C@H](Cc1ccc2ccccc2c1)NC(=O)N1CCOCC1 [Mu--Np2-HphγSO2 Np]              0.1
2  O=C(O)CCC(=O)N[C@@H](Cc1ccc2ccccc2c1)C(=O)N[C@@H](CCc1ccccc1)CCS(=O)(=O)c1ccccc1 [Suc--Np2--HphγSO2 Ph]             0.78
3  O=C(NC(CCc1ccccc1)S(=O)(=O)Cc1ccccc1)[C@H](Cc1ccccc1)NC(=O)N1CCOCC1 (stereo partly drawn) [Mu--Phe--HphαSO2 Bzl]             0.92
4  O=C(NC(CCc1ccccc1)S(=O)(=O)c1ccccc1)[C@H](Cc1ccccc1)NC(=O)N1CCOCC1 (stereo partly drawn) [Mu--Phe--(DL)HphαSO2 Ph]               15
5  O=C(CCNC(=O)OCc1ccccc1)N[C@@H](Cc1ccccc1)C(=O)N[C@@H](CCc1ccccc1)CCS(=O)(=O)c1ccccc1 [Z--β-Ala--Phe--HphγSO2 Ph]             0.54

src = patent US5776718A
